Test system: A549
Test: Antiproliferative activity against human A549 cells incubated for 48 hrs by MTT assay
Type: functional, cell-based
Conditions: A549, 48 h
pIC50: −log10 of the molar value.
Value Type: pIC50

{"columns": ["Chemical Structure", "Result Operator", "Recorded Measurement"],
 "data": [
  ["Cn1cc(-c2cnc3ccnc(NCc4ccc(F)cc4)c3c2)cn1", "=", 5.28],
  ["Cn1cc(-c2cnc3ccnc(NS(=O)(=O)c4ccc(C(F)(F)F)cc4)c3c2)cn1", "<", 4.30],
  ["COc1ccc(CNc2nccc3ncc(-c4cnn(C)c4)cc23)cc1", "<", 4.30],
  ["COc1ccc(C(=O)Nc2ccc3ncc(-c4cnn(C)c4)cc3n2)cc1", "=", 5.19],
  ["Cn1cc(-c2cnc3ccc(NC(=O)C4CC4)nc3c2)cn1", "<", 4.30]
]}

====

System: HeLa
Assay: Antiproliferative activity against human HeLa cells incubated for 48 hrs by MTT assay
Format: functional, cell-based
pIC50: −log10 of the molar value.
pIC50 by entry:

{"columns": ["Chemical Structure", "pIC50"],
 "data": [
  ["Cn1cc(-c2cnc3ccnc(NS(=O)(=O)c4c(Cl)cccc4Cl)c3c2)cn1", "< 4.30"],
  ["Cn1cc(-c2cnc3ccc(NS(=O)(=O)c4cccs4)nc3c2)cn1", 4.42],
  ["Cn1cc(-c2cnc3ccnc(NC(=O)C4CC4)c3c2)cn1", "< 4.30"],
  ["Cn1cc(-c2cnc3ccnc(NS(=O)(=O)c4cccs4)c3c2)cn1", 4.76],
  ["Cc1ccc(S(=O)(=O)Nc2nccc3ncc(-c4cnn(C)c4)cc23)cc1", "< 4.30"],
  ["Cn1cc(-c2cnc3ccc(NS(=O)(=O)c4ccc(C(F)(F)F)cc4)nc3c2)cn1", "< 4.30"],
  ["COc1ccc(C(=O)Nc2nccc3ncc(-c4cnn(C)c4)cc23)cc1", "< 4.30"],
  ["Cn1cc(-c2cnc3ccc(NC(=O)C4CC4)nc3c2)cn1", "< 4.30"],
  ["Cn1cc(-c2cnc3ccc(NS(=O)(=O)c4ccc(Cl)cc4Cl)nc3c2)cn1", "< 4.30"],
  ["Cn1cc(-c2cnc3ccc(NC(=O)c4cccnc4)nc3c2)cn1", "< 4.30"],
  ["Cn1cc(-c2cnc3ccnc(N)c3c2)cn1", 4.39],
  ["Cn1cc(-c2cnc3ccc(N)nc3c2)cn1", "< 4.30"],
  ["CCNc1ccc2ncc(-c3cnn(C)c3)cc2n1", "< 4.30"],
  ["CCNc1nccc2ncc(-c3cnn(C)c3)cc12", "< 4.30"],
  ["Cn1cc(-c2cnc3ccnc(NCc4ccc(F)cc4)c3c2)cn1", 5.04],
  ["Cn1cc(-c2cnc3ccnc(NS(=O)(=O)c4ccc(C(F)(F)F)cc4)c3c2)cn1", "< 4.30"],
  ["COc1ccc(CNc2ccc3ncc(-c4cnn(C)c4)cc3n2)cc1", "< 4.30"],
  ["COc1ccc(CNc2nccc3ncc(-c4cnn(C)c4)cc23)cc1", 4.37],
  ["CC(=O)Nc1ccc2ncc(-c3cnn(C)c3)cc2n1", "< 4.30"],
  ["Cn1cc(-c2cnc3ccc(NC(=O)c4ccc(F)cc4)nc3c2)cn1", "< 4.30"],
  ["Cc1ccc(S(=O)(=O)Nc2ccc3ncc(-c4cnn(C)c4)cc3n2)cc1", "< 4.30"],
  ["COc1ccc(C(=O)Nc2ccc3ncc(-c4cnn(C)c4)cc3n2)cc1", 5.31]
]}

====

Test system: A549
Test: Antiproliferative activity against human A549 cells incubated for 48 hrs by MTT assay
Type: functional, cell-based
Details: A549, 48 h
IC50 by entry:
Value Type: IC50

{"columns": ["Chemical Structure", "Recorded Measurement"],
 "data": [
  ["Cn1cc(-c2cnc3ccc(NCc4ccc(F)cc4)nc3c2)cn1", "> 50 µM"],
  ["Cn1cc(-c2cnc3ccc(N)nc3c2)cn1", "> 50 µM"],
  ["CCNc1ccc2ncc(-c3cnn(C)c3)cc2n1", "> 50 µM"],
  ["Cn1cc(-c2cnc3ccc(NCC4CC4)nc3c2)cn1", "> 50 µM"],
  ["Cn1cc(-c2cnc3ccc(NS(=O)(=O)c4ccc(C(F)(F)F)cc4)nc3c2)cn1", "> 50 µM"]
]}
